Each item that follows carries a reported fold induction at 50 µM.
System: E. cloacae
protocolNotes: AK assay 384-well format, Prestwick library screening
Assay type: cell-based, Enterobacter cloacae
cond: Enterobacter cloacae, 3 h, planktonic E. cloacae; 50 μM final drug concentration; […]; read-out: AK-based Prestwick Library Screening Results, E. cloacae (increase in extracellular AK activity)
Hey, just send me the number, nothing else.

• C[C@H]1O[C@@H](O[C@H]2[C@@H](O)C[C@H](O[C@H]3[C@@H](O)C[C@H](O[C@H]4CC[C@@]5(C)[C@H](CC[C@@H]6[C@@H]5C[C@@H](O)[C@]5(C)[C@@H](C7=CC(=O)OC7)CC[C@]65O)C4)O[C@@H]3C)O[C@@H]2C)C[C@H](O)[C@@H]1O = 1.2
• Cc1cccc(C)c1N=C1NCCCS1 = 1.4
• CCCC(C)(COC(N)=O)COC(=O)NC(C)C (stereo not shown) = 0.8

Here is another compound to look at.
Query :: Recorded fold induction at 50 µM of `CCCCc1ccc(C(=O)O)nc1` , please.
Result :: 1.2
